List of IC50 values.
Target: UniProt:Q9NWZ3
Sequence (Q9NWZ3 whole entry): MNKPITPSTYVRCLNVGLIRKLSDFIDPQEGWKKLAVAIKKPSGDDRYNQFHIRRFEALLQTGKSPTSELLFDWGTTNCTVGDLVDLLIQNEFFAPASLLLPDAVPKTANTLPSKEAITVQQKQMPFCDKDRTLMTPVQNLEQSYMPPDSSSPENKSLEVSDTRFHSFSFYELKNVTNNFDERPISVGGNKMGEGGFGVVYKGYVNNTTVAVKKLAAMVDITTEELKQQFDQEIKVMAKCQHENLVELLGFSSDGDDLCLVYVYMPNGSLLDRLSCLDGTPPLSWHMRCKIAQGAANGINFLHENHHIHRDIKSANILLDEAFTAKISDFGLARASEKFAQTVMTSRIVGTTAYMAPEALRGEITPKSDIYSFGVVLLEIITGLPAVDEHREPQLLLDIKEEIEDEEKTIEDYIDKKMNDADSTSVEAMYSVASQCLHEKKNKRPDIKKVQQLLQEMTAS

| MOLECULE | STUDY SYSTEM | IC50 [pM] |
| --- | --- | --- |
| CC(C)Oc1cc2nc([C@@]34CC[C@@](C)(C3)OC4)cn2cc1C(=O)Nc1cccn([C@H]2C[C@H]2F)c1=O (single isomer, unassigned) [Example 169] | UniProt:Q9NWZ3 | 300 |
| CC(C)Oc1nc2nc([C@@H]3CCCOC3)cn2cc1C(=O)Nc1cccn(C2CC2)c1=O (single isomer, unassigned) [Example 108] | UniProt:Q9NWZ3 | 100 |
| CO[C@@H]1C[C@H]1n1cccc(NC(=O)c2cn3cc(C45COC(C)(C4)C5)nc3nc2OC(C)C)c1=O (single isomer, unassigned) [Example 137] | UniProt:Q9NWZ3 | 1400 |
| CC12CCC(c3cn4cc(C(=O)Nc5cccn(C6CC6)c5=O)c(OC5CCC5)cc4n3)(CO1)C2 (stereo not drawn) [Example 23] | UniProt:Q9NWZ3 | 500 |
| CC(C)Oc1c(C(=O)Nc2cccn([C@@H]3C[C@@H]3F)c2=O)cn2cc([C@]34CC[C@](C)(C3)OC4)nc2c1F (single isomer, unassigned) [Example 126] | UniProt:Q9NWZ3 | 66500 |
| CC[C@H](C)Oc1nc2nc(C34COC(C)(C3)C4)cn2cc1C(=O)Nc1cccn(C2CC2)c1=O (single isomer, unassigned) [Example 64] | UniProt:Q9NWZ3 | 500 |

Hey, just so you know, these numbers are from patent US20240116922A1.
